# ASSAYED SYSTEM: UniProt:Q9H2K8
# Sequence (Q9H2K8 whole entry, species assumed): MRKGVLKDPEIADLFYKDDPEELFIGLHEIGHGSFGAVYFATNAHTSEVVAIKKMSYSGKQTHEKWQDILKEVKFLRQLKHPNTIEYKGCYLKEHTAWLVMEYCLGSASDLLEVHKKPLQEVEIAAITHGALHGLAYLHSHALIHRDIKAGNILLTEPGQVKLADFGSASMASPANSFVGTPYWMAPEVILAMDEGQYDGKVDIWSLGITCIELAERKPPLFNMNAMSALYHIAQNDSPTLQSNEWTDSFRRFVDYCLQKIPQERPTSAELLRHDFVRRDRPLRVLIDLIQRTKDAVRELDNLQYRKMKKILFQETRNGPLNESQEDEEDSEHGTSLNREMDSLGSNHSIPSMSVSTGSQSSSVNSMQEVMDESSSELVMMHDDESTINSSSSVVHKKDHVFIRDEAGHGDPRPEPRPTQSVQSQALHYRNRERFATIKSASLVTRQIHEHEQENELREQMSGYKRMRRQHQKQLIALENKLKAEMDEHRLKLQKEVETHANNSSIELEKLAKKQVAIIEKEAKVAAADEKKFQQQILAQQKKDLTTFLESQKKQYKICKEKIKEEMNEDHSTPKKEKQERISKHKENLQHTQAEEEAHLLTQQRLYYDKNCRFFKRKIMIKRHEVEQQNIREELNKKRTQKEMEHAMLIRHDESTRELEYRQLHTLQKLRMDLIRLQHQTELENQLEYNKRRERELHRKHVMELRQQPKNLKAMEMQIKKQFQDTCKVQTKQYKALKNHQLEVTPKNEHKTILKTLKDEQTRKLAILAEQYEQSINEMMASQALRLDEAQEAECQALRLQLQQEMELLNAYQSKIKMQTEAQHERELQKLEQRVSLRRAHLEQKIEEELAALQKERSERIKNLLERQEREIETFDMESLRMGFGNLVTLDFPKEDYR
# PROCEDURE SUMMARY: Kinase panel (mobility shift)
# Type: biochemical
# Procedure: The disclosed compounds were tested for activity against a panel of 299 kinases. The target enzyme was incubated with fluorescently labeled substrate and test compounds in a standardized reaction mixture in 384 well plates. Upon termination of the reaction, samples were introduced onto microfluidic chips. […] Enzyme activity was measured by direct comparison of the fluorescence in the product and substrate peaks. […]
Here the recorded inhibition at 5 µM is given for each entry.

I looked up CNC(=O)c1cc(Oc2ccc(NC(=O)c3nc(NC)sc3-c3ccc(F)cc3C)cc2F)ccn1 and its inhibition at 5 µM for UniProt:Q9H2K8 was 50 to 79%

I looked up CNC(=O)c1cc(Oc2ccc(NC(=O)c3nc(OC4CC4)oc3-c3ccc(F)cc3)cc2F)ccn1 and its inhibition at 5 µM for UniProt:Q9H2K8 was 50 to 79%

I looked up CNC(=O)c1cc(Oc2ccc(NC(=O)c3nc(OC)oc3-c3ccc(F)cc3)cc2F)ccn1 and its inhibition at 5 µM for UniProt:Q9H2K8 was < 50%

I looked up CSc1nc(C(=O)Nc2ccc(Oc3ccnc(C(=O)NC4CNC4)c3)c(F)c2)c(-c2ccc(F)s2)o1 and its inhibition at 5 µM for UniProt:Q9H2K8 was < 50%

---

# ASSAYED SYSTEM: DDR2 (Homo sapiens)
# Sequence (Q16832 22-855, species assumed): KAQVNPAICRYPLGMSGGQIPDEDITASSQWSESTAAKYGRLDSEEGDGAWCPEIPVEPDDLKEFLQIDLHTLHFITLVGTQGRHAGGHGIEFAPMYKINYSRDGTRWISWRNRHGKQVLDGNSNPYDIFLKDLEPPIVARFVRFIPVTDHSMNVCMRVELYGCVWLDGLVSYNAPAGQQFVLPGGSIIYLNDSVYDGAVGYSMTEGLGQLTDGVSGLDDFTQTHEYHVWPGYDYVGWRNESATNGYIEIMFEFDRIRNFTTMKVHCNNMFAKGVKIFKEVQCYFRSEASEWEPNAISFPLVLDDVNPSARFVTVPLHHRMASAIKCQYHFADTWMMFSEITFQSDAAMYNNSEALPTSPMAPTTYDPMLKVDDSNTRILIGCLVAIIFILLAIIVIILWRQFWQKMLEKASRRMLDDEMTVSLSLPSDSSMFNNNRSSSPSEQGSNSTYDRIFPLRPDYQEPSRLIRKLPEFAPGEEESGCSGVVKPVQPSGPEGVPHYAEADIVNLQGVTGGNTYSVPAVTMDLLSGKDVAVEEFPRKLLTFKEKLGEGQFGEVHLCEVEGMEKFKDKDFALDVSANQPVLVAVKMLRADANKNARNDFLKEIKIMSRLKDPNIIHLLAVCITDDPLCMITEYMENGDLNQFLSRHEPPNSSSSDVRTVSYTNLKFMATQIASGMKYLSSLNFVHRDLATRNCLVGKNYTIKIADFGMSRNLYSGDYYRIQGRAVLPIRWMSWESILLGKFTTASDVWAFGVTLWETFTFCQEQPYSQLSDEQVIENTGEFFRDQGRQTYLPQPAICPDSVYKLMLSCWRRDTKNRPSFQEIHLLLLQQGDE
# PROCEDURE SUMMARY: Kinase panel (mobility shift)
# Type: biochemical
Here the recorded inhibition at 5 µM is given for each entry.

A selection of reference data follows.
[
  {
    "SMILES": "COc1nc(C(=O)Nc2ccc(Oc3ccnc(C(=O)NCC(F)(F)F)c3)c(F)c2)c(-c2ccc(F)cc2)o1",
    "READOUT": "inhibition at 5 µM",
    "MEASURED": "< 50%"
  },
  {
    "SMILES": "CSc1nc(C(=O)Nc2ccc(Oc3ccnc(C(=O)NC4CNC4)c3)c(F)c2)c(-c2ccc(F)s2)o1",
    "READOUT": "inhibition at 5 µM",
    "MEASURED": "< 50%"
  }
]

Lab note: next molecule to report on.
Quick note, inhibition at 5 µM for CSc1nc(C(=O)Nc2ccc(Oc3ccnc(C(=O)NC4CNC4)c3)c(F)c2)c(-c2ccc(F)cc2)o1 landed at 50 to 79%

---

Here the recorded inhibition at 5 µM is given for each entry.
# ASSAYED SYSTEM: TAOK2 (Homo sapiens, UniProt Q9UL54)
# Sequence (Q9UL54 whole entry, species assumed): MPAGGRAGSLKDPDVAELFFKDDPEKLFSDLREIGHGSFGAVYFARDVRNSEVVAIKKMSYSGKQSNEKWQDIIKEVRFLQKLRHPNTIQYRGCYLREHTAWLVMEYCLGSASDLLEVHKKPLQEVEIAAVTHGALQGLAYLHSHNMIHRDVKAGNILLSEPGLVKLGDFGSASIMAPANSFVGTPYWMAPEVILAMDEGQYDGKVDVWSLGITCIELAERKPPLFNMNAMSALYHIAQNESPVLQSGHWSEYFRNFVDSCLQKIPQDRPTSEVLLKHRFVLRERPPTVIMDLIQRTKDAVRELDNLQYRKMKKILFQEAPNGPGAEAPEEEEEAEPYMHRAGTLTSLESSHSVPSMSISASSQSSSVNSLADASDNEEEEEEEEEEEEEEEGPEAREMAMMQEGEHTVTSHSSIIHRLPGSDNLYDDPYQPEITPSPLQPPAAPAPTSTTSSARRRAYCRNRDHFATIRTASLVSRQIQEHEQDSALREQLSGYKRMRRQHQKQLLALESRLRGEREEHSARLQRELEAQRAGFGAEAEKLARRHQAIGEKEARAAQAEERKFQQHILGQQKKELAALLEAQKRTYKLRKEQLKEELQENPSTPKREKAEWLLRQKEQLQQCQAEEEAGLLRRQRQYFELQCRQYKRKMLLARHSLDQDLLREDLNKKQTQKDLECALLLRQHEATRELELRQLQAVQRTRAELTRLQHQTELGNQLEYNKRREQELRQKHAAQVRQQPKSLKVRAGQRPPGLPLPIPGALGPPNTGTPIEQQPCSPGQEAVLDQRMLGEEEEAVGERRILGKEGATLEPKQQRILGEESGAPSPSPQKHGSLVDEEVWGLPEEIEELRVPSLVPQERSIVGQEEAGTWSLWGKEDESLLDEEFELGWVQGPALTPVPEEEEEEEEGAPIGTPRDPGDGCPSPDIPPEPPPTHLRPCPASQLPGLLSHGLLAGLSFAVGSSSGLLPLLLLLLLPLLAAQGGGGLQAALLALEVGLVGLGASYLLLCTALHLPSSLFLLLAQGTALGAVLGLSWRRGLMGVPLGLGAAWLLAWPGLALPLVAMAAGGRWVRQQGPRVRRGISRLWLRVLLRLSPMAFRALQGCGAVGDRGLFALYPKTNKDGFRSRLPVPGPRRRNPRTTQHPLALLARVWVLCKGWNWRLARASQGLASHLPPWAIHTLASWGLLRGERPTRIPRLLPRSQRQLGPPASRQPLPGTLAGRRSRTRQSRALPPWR
# PROCEDURE SUMMARY: Kinase panel (mobility shift)
# Assay type: biochemical

[
  {
    "MOLECULE": "CNC(=O)c1cc(Oc2ccc(NC(=O)c3nc(OCC(F)(F)F)oc3-c3ccc(F)cc3)cc2F)ccn1 [Compound 38]",
    "inhibition at 5 µM": "< 50%"
  }
]

Quick note, inhibition at 5 µM for CNC(=O)c1cc(Oc2ccc(NC(=O)c3nc(OC)oc3-c3ccc(F)cc3)cc2F)ccn1 [Compound 15] landed at < 50%

Quick note, inhibition at 5 µM for [2H]C([2H])([2H])NC(=O)c1cc(Oc2ccc(NC(=O)c3nc(SC)oc3-c3ccc(F)c(F)c3)cc2F)ccn1 [Compound 33] landed at < 50%

Quick note, inhibition at 5 µM for CNC(=O)c1cc(Oc2ccc(NC(=O)c3nc(COC)oc3-c3ccc(F)cc3)cc2F)ccn1 [Compound 30] landed at 50 to 79%
